Source listed as patent US20110183978A1.

assay: physchem; details: LogPA (logP of the stated pure compound or, in a mixture, of the main isomer, 1-substituted 3-aryl-1H-pyrazole)
testReadout: chromatographic logP
# respond with the number and nothing more

// known answers, use as guide
[ask] Which value of chromatographic logP has been reported for CCC(C)n1cc(-c2ccncc2)c(-c2ccc(F)cc2)n1 (stereo not drawn) in the records?
[reply] 1.5

[ask] Quick one: chromatographic logP for CCC(=O)Nc1cc(-c2cn(C(C)CC)nc2-c2ccc(F)cc2)ccn1 (stereo not drawn) ?
[reply] 2.46

[ask] Dear colleague, I am looking for the recorded chromatographic logP of the following molecule: COCC(=O)Nc1cc(-c2cn(C(C)C)nc2-c2ccc(F)cc2)ccn1
[reply] 2.59

[ask] Tell me the measured chromatographic logP of Fc1ccc(-c2nn(Cc3ccncc3)cc2-c2ccncc2)cc1 , please.
[reply] 0.25

[ask] So what's the measured chromatographic logP for this one? N#Cc1cccc(-c2c(-c3ccncc3)cnn2C2CCCCO2)c1 (stereo not drawn)
[reply] 1.23

[ask] Dear colleague, I am looking for the recorded chromatographic logP of the following molecule: Cc1nccc(-c2cn(C3CCCCO3)nc2-c2ccc(F)cc2)n1 (stereo not drawn)
[reply] 2.53

---
[ask] Given the entry Fc1ccc(-c2c(-c3ccncc3)cnn2C2CCCCO2)c(F)c1 (stereo not drawn) , report its measured chromatographic logP.
[reply] 1.35

[ask] Which chromatographic logP value is on record for CC(C)CC(=O)Nc1cc(-c2cn(C(C)C)nc2-c2ccc(F)cc2)ccn1 ?
[reply] 2.82

[ask] Which value of chromatographic logP has been reported for CCC(=O)Nc1cc(-c2cn(CC(C)C)nc2-c2ccc(F)cc2)ccn1 in the records?
[reply] 2.51

[ask] Suppose we examine the molecule OCC(O)Cn1cc(-c2ccncc2)c(-c2ccc(F)cc2)n1 (stereo not drawn) ; what chromatographic logP value has been reported?
[reply] 0.17

[ask] Item CCC(=O)Nc1cc(-c2cn(C3CCCCO3)nc2-c2ccc(F)cc2)ccn1 (stereo not drawn) has what recorded chromatographic logP?
[reply] 2.32

====

assay: physchem; conditions: LogPA (logP of the stated pure compound or, in a mixture, of the main isomer, 1-substituted 3-aryl-1H-pyrazole)
testReadout: chromatographic logP
The reply should be a number, written without any unit.

Past entries and their recorded results:
[ask] I am curious: what chromatographic logP value has been reported for Fc1ccc(-c2nn(C3CCCCO3)cc2-c2ccnc3[nH]ccc23)cc1 (stereo not drawn) [Compound 20] ?
[reply] 2.08

[ask] Any idea what its chromatographic logP is? The molecule is CC(c1cccc(Cl)c1)n1cc(-c2ccncc2)c(-c2ccc(F)cc2)n1 (stereo not drawn) [Compound 101]
[reply] 2.17

Others:
[ask] Value lookup for chromatographic logP; key = CC(C)(C)Cn1ncc(-c2ccncc2)c1-c1c(F)cccc1F [Compound 6]
[reply] 1.79

[ask] I'd like to know its chromatographic logP. The molecule in question is COc1ccc(-c2nn(C3CCCCO3)cc2-c2ccnc3[nH]ccc23)cc1 (stereo not drawn) [Compound 80]
[reply] 1.87

[ask] Fill in: chromatographic logP of c1cnc2c(-c3c(-c4ccncc4)cnn3C3CCCCO3)cccc2c1 (stereo not drawn) [Compound 99] is ___
[reply] 1.09

[ask] For Fc1ccc(-c2nn(CC3CC3)cc2-c2ccncc2)cc1 [Compound 126] , what is its reported chromatographic logP?
[reply] 1.33

[ask] Tell me the measured chromatographic logP of O=C(Nc1ccccc1)c1cc(-c2cn(C3CCCCO3)nc2-c2ccc(F)cc2)ccn1 (stereo not drawn) [Compound 94] , please.
[reply] 4.34

[ask] Reported chromatographic logP, molecule Fc1cccc(F)c1-c1nn(C2CCC2)cc1-c1ccncc1 [Compound 8] : ____
[reply] 1.56

[ask] Item under review: CC(C)=CCn1cc(-c2ccncc2)c(-c2ccc(F)cc2)n1 [Compound 30] . Reported chromatographic logP?
[reply] 2.11
